# TARGET ENTITY: HLA-B*15:01
# ASSAY INFO: IEDB peptide-MHC binding, purified MHC/competitive/radioactivity; filed as Kd, often an IC50 or EC50 that approximates it; bounds were set here for any values at or beyond the usual limits of such assays
# TEST CONDITIONS: source organism: Vaccinia virus Copenhagen
In this section, each of the sequences is paired with its reported pKd.
Remember the convention: pKd equals -log10 of concentration in molar.

# ORDERED RESIDUES, TARGET ENTITY, QUANTITATIVE RESULT
measured = [
    ("IHFMREYWF", "HLA-B*15:01", 5.16),
]

Now, please, on to the next sequence.
Which pKd reading was recorded for the sequence GINKRSTPF ? 9.14

====

# TARGET ENTITY: HLA-A*24:03
# ASSAY INFO: IEDB peptide-MHC binding, purified MHC/direct/fluorescence; filed as Kd, often an IC50 or EC50 that approximates it; bounds were set here for any values at or beyond the usual limits of such assays
# TEST CONDITIONS: source organism: Bacillus cereus 03BB108
READOUT LABEL: Kd

I am curious: what Kd value has been reported for SYMLQGLRK ? ≥ 20 µM

====

# TARGET ENTITY: HLA-A*03:01
# ASSAY INFO: IEDB peptide-MHC binding, purified MHC/direct/fluorescence; filed as Kd, often an IC50 or EC50 that approximates it; bounds were set here for any values at or beyond the usual limits of such assays
# TEST CONDITIONS: source organism: Rickettsia sibirica
pKd: −log10 of the molar value.
READOUT LABEL: pKd

Fill blank: measured pKd of the sequence ASDRISGIL is ____. ≤ 4.70

====

Entries and their Kd
# TARGET ENTITY: HLA-A*31:01
# ASSAY INFO: IEDB peptide-MHC binding, purified MHC/competitive/radioactivity; filed as Kd, often an IC50 or EC50 that approximates it; bounds were set here for any values at or beyond the usual limits of such assays
# TEST CONDITIONS: source organism: Mammarenavirus machupoense
Just the number please, in µM, no unit attached.

# ORDERED RESIDUES, TARGET ENTITY, Kd (µM)
measured = [
    ("LNNSFYYMR", "HLA-A*31:01", 0.00464),
]

# evaluate next
Name the reported Kd value associated with the sequence SSVSVLMKEH 11.7

====

Measured pKd accompanies every entry in the list below.
# TARGET ENTITY: HLA-B*57:01
# ASSAY INFO: IEDB peptide-MHC binding, purified MHC/competitive/fluorescence; filed as Kd, often an IC50 or EC50 that approximates it; bounds were set here for any values at or beyond the usual limits of such assays
# TEST CONDITIONS: source organism: Bacillus anthracis str. A0488
pKd: −log10 of the molar value.

# ORDERED RESIDUES, pKd
data = [
    ("SYMLQGLRK", "≤ 4.70"),
]

Query sequence follows.
Lab note: need pKd with HLA-B*57:01 for entry IQKGMFVVK , please look it up. ≤ 4.70

====

# Kd values compiled below
# TARGET ENTITY: HLA-B*07:02
# ASSAY INFO: IEDB peptide-MHC binding, purified MHC/direct/fluorescence; filed as Kd, often an IC50 or EC50 that approximates it; bounds were set here for any values at or beyond the usual limits of such assays
# TEST CONDITIONS: source organism: Brucella abortus 2308

# ORDERED RESIDUES, Kd
measured = [
    ("KRASGDPYF", "≥ 20 µM"),
]

Continue with the sequence presented below.
State the recorded Kd for this entry: IEVKFHPIL ≥ 20 µM

====

# TARGET ENTITY: HLA-C*12:03
# ASSAY INFO: IEDB peptide-MHC binding, purified MHC/direct/fluorescence; filed as Kd, often an IC50 or EC50 that approximates it; bounds were set here for any values at or beyond the usual limits of such assays
# TEST CONDITIONS: source organism: Escherichia coli B171
READOUT LABEL: Kd

Form field - read-out: Kd; system: HLA-C*12:03; submitted item: YSALRPHEY 9 nM

====

# TARGET ENTITY: HLA-B*39:01
# ASSAY INFO: IEDB peptide-MHC binding, purified MHC/direct/fluorescence; filed as Kd, often an IC50 or EC50 that approximates it; bounds were set here for any values at or beyond the usual limits of such assays
# TEST CONDITIONS: source organism: Marburg virus - Musoke, Kenya, 1980
READOUT LABEL: Kd

Record YHLGGIEGL : what is its Kd with HLA-B*39:01? 40.3 nM

====

# TARGET ENTITY: HLA-B*15:01
# ASSAY INFO: IEDB peptide-MHC binding, purified MHC/competitive/fluorescence; filed as Kd, often an IC50 or EC50 that approximates it; bounds were set here for any values at or beyond the usual limits of such assays
# TEST CONDITIONS: source organism: Vaccinia virus WR
READOUT LABEL: Kd (µM)
Report the value in µM with no unit label.

Requested read-out: Kd. Entry: EYYFRNEVF 4.38

====

# TARGET ENTITY: HLA-A*02:11
# ASSAY INFO: IEDB peptide-MHC binding, purified MHC/competitive/fluorescence; filed as Kd, often an IC50 or EC50 that approximates it; bounds were set here for any values at or beyond the usual limits of such assays
# TEST CONDITIONS: source organism: Listeria monocytogenes J0161
READOUT LABEL: Kd (nM)
Value expressed in nM; do not type the unit.

Entry YNAKRIETV : reported Kd = ? 239

====

# TARGET ENTITY: HLA-A*24:03
# ASSAY INFO: IEDB peptide-MHC binding, purified MHC/direct/fluorescence; filed as Kd, often an IC50 or EC50 that approximates it; bounds were set here for any values at or beyond the usual limits of such assays
# TEST CONDITIONS: source organism: Orthohantavirus hantanense
READOUT LABEL: Kd

// Kd lookup, key: RYRTAVCGL 6.7 nM

====

# TARGET ENTITY: HLA-B*46:01
# ASSAY INFO: IEDB peptide-MHC binding, purified MHC/competitive/fluorescence; filed as Kd, often an IC50 or EC50 that approximates it; bounds were set here for any values at or beyond the usual limits of such assays
# TEST CONDITIONS: source organism: Listeria monocytogenes J0161
pKd: −log10 of the molar value.
READOUT LABEL: pKd

Report pKd for YNAKRIETV please. ≤ 4.70

====

# TARGET ENTITY: HLA-A*11:01
# ASSAY INFO: IEDB peptide-MHC binding, purified MHC/competitive/fluorescence; bounds were set here for any values at or beyond the usual limits of such assays
# TEST CONDITIONS: source organism: Variola virus
READOUT LABEL: IC50 (nM)
Express the result in nM but write the number alone.

Need IC50 of RVNPGTYVY , thanks. 701

====

Entries annotated with measured Kd
# TARGET ENTITY: HLA-A*03:01
# ASSAY INFO: IEDB peptide-MHC binding, purified MHC/competitive/radioactivity; filed as Kd, often an IC50 or EC50 that approximates it; bounds were set here for any values at or beyond the usual limits of such assays
# TEST CONDITIONS: source organism: Vaccinia virus WR
Give the value, in units of nM, as a plain number.

Worked examples follow.
# ORDERED RESIDUES, QUANTITATIVE RESULT
rows = [
    ("KQLCYCPASK", 27.1),
    ("YIYSEIKQGR", 1650),
    ("VIDKAKVMGR", 805),
]

Turning now to a further record.
Using the record for KMLTFDVFR , report its Kd. 82.9

====

Reported Kd values follow for various sequences
# TARGET ENTITY: HLA-A*03:01
# ASSAY INFO: IEDB peptide-MHC binding, purified MHC/direct/fluorescence; filed as Kd, often an IC50 or EC50 that approximates it; bounds were set here for any values at or beyond the usual limits of such assays
# TEST CONDITIONS: source organism: Haemophilus influenzae
# unit: µM | format: bare number

// returns reported Kd for input ILKEHVSRY 3.18

Same thing, different sequence: MTMRRRLFK 0.0531

====

# TARGET ENTITY: HLA-A*33:01
# ASSAY INFO: IEDB peptide-MHC binding, purified MHC/competitive/radioactivity; filed as Kd, often an IC50 or EC50 that approximates it; bounds were set here for any values at or beyond the usual limits of such assays
# TEST CONDITIONS: source organism: Mammarenavirus guanaritoense
Listed sequences paired with reported pKd
Conceptually, pKd converts a concentration in mol/L into minus its log10.

# ORDERED RESIDUES, QUANTITATIVE RESULT
data = [
    ("NSYSLIRLSH", 5.49),
]

Which pKd is reported with HLA-A*33:01 for this entry: NYTRFWYINH ? 7.31
